Hey, just so you know, these numbers are from PubChem BioAssay AID2685.

experiment: qHTS Assay for Lipid Storage Modulators in Drosophila S3 Cells; details: BODIPY lipid droplet fluorescence, 18-24 h, cells fed with added oleic acid; measured here: cell count max response;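 note: cells counted by Cell Tracker Red CMTPX staining in the red channel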
Hit rate of the full screen: of about 320,000 compounds, about 2,100 (0.66%) were called active. Not shown: some 53% with an inconclusive outcome. Only a selection was taken, and actives are over-represented in it overall.
QUANTITY_NAME: cell number change (%)
Express the result in % but write the number alone.

| COMPOUND | RECORDED_RESULT |
| --- | --- |
| Cc1ccc(-c2ccccc2NC(=O)CS(=O)CC(=O)Nc2ccc(C)c(Cl)c2)o1 (stereo not given) | -13 |
| Cc1ccc(NC(=O)CS(=O)CC(=O)Nc2ccccc2-c2ccc(C)o2)cc1 (stereo not given) | 17.8 |
| COc1ccc(NC(=O)c2ccc3c(c2)n(C)c(=O)n3C)cc1 | -1.07 |
| N/C(=N/O)c1nc(N2CCCC2)nc(N2CCCC2)n1 | 6.44 |

Okay, now this compound:
What value of cell number change has been recorded for this entry: `Cc1ccc(N(CC(=O)NC2CCCCC2)S(=O)(=O)c2c(C)nn(C)c2C)cc1`
5.73
